Target: human PD-1 expressed on cells (human, UniProt Q15116 25-288)
Sequence (Q15116 25-288): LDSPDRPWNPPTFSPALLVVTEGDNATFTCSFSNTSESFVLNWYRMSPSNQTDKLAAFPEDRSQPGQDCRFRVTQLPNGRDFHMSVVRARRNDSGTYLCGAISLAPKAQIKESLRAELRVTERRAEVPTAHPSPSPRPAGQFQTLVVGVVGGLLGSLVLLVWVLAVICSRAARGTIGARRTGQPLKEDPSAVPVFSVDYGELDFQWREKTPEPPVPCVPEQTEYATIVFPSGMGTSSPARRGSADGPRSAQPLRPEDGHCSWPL
Test: FACS
recorded_metric: EC50 (nM)
Output spec: scalar in nM, unitless text.

These solved cases illustrate the format of a correct answer.
INSERT INTO measurements (binder, test_result) VALUES
  ('1.139.15 hAb (antibody, V domains shown) VH: QLQLQESGPGLVKPSETLSLTCTVSGGSISSTTYYWGWIRQPPGKGLEWIGSISYSGTTYYNPSLKSRVTIPVDTSKNQISLKLSSVTAADTSLYYCARHLGYNSNWYPFDYWGQGTLVTVSS VL: QSALTQPPSVSGSPGQSVTISCTGTSSDVGSYNRVSWYQQPPGTAPEVIIYEVSNRPSGVPDRFSGSKSGNTASLTISGLQAEDEADYYCSSYTSSSTWVFGGGTKLTVL', 1.92),
  ('1.153.7 hAb (antibody, V domains shown) VH: EVQLLESGGGLVQPGGSLRLSCAASGFTFSSHAMSWVRQAPGKGLEWVSTITGGGGSIYYADSVKGRFTISRDNSKNTLYLQMNSLRAEDTAVYYCAKNRAGEGYFDYWGQGTLVTVSS VL: SYELTQPLSVSVALGQTARITCGGDNIGNKDVHWYQQKPGQAPVLVIYRDSNRPSGIPEGFSGSNSGNTATLTISRAQAGDEADYYCQVWDSIWVFGGGTKLTVL', 2.62),
  ('1.103.11 hAb (antibody, V domains shown) VH: QLQLQESGPGLVKPSETLTLTCTVSADSISSTTYYWVWIRQPPGKGLEWIGSISYSGSTYYNPSLKSRVTVSVDTSKNQFSLKLNSVAATDTALYYCARHLGYNGRYLPFDYWGQGTLVTVSS VL: QSALTQPASVSGSPGQSITISCTGTSSDVGFYNYVSWYQQHPGKAPELMIYDVSNRPSGVSDRFSGSKSGNTASLTISGLQAEDEADYYCSSYTNISTWVFGGGTKLTVL', 2.09);

Okay, next one:
Task: Name the recorded EC50 of the binder listed here: 1.7.3 hAb (antibody, V domains shown) VH: QLQLQESGPGLVKPSETLTLTCTVSGDSISSTTYYWVWIRQPPGKGLEWIGSISYSGNTYYNPSLKSRVTISVDTSKNHFSLKLSSVAATDTALYYCARHLGYNGRYLPFDYWGQGTLVTVSS VL: QSALTQPASVSGSPGQSITISCTGTSSDVGFYNYVSWYQQHPGKAPELMIYDVTNRPSGVSDRFSGSKSGNTASLTISGLQAEDEADYYCSSYTSISTWVFGGGTKLTVL
Output: 2.44
